Target: VEGFR (UniProt P17948 27-1338)
Sequence (P17948 27-1338): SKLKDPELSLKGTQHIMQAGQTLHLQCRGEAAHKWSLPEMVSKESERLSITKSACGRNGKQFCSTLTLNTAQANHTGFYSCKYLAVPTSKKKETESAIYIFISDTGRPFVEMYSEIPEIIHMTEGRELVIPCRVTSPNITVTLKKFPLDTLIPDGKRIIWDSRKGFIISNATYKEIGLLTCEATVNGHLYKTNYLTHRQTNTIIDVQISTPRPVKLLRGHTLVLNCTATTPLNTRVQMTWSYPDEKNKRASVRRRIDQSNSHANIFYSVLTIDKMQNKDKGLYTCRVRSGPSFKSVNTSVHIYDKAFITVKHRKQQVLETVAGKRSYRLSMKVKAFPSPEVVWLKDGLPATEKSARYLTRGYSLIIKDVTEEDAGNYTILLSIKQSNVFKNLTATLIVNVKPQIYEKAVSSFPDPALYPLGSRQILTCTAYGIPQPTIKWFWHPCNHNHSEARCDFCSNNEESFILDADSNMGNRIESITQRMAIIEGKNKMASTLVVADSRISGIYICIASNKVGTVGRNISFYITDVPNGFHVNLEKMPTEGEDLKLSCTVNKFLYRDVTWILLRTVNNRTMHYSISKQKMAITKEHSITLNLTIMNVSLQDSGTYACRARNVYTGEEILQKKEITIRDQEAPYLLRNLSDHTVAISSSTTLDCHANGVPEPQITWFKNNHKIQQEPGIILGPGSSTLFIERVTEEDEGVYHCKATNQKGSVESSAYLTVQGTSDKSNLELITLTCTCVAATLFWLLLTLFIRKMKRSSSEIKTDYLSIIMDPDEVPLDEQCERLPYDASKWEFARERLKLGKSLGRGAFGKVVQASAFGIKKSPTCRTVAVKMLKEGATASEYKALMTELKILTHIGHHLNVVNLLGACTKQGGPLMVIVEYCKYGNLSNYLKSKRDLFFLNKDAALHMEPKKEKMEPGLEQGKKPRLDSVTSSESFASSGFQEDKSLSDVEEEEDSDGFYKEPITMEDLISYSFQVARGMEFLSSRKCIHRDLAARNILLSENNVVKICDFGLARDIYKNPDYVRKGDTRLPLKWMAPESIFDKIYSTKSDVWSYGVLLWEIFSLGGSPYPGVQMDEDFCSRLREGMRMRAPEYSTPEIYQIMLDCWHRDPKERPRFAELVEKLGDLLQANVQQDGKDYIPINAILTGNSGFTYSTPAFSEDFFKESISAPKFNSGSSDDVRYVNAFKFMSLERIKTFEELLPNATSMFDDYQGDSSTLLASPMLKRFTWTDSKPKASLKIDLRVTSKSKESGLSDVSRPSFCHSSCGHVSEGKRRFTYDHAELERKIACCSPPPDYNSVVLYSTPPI
Experiment: radioligand binding; receptor competition binding with 125I-VEGF165, peptide concentration varied; details in ref. 28
measurement-kind: IC50 (nM)

QKRKRKKSRYKS (source: synthetic peptide (ChinaPeptides Co., Ltd., SPPS, HPLC purified)) [VEGF_(125-136)]	464

[1] RKRKRKKSRYIVLS (core motif RKRKKSR kept; also called non-labeled peptide; source: synthetic peptide (ChinaPeptides Co., Ltd., SPPS, HPLC purified))
[2] QKRKRKKSRKKH (core motif RKRKKSR kept; also called non-labeled peptide; source: synthetic peptide (ChinaPeptides Co., Ltd., SPPS, HPLC purified))
Short answer wanted: higher IC50, 1 or 2 ? Response format: the label of the selected entry.
1
